Target: T1, human CD30 expressed on the cell surface (human, UniProt P28908 19-595)
T1 chain: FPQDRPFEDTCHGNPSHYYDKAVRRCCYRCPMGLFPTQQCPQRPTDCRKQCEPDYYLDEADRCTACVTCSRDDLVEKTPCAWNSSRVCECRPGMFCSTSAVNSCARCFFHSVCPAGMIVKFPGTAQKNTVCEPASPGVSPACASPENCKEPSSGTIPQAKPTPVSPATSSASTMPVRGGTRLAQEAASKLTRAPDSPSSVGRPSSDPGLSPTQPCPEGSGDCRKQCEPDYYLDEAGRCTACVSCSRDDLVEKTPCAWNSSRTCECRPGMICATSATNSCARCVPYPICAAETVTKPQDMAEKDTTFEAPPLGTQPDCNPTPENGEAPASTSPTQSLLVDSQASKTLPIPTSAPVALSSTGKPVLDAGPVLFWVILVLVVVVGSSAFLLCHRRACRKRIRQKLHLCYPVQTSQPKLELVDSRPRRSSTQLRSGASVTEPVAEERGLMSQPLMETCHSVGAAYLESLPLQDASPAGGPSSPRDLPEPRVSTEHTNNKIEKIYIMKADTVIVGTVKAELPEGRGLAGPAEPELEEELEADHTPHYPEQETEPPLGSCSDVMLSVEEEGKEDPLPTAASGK
Assay: SPR; CD30 immobilized on CM5 chip, antibody as analyte
# Kd per record follows
The answer is to be given in nM; state only the numeric part.

# count of solved cases: 3
binder	value.kind	measured.result
8D10 (antibody, V domains shown) VH: QVQLQESGTELVKPGASVKLSCKASGYTFTSYWMHWMKQRPGQGLEWIGNINPSNGGTNYNEKFKNKATLTVDKSSSTAYMQLSSLTSEDSAVYYCARRDYYYGSSYGFDVWGTGTTVTVSS VL: DIVMTQSPASQSASLGESVTITCLASQTIGTWLAWYQQKPGKSPQFLIYAATSLADGVPSRFSGSGSGTKFSFKISSLQAEDFVSYYCQQLYSTPFTFGGGTKLEIK	Kd	0.0592
12B1 (antibody, V domains shown) VH: EVKLEESGTELVKPGASVKLSCKASGYTFTSYWMHWVKQRPGQGLEWIGNINPTNGGTNYNEKFKSKATLTVDKSSRTAYMQLSSLTSGDSAVYYCARRDFITTSGFAYWGQGTLVTVSA VL: DIVMTQTTASLSTSVGETVTITCRASGNLHSYLTWYQQKQGKSPQLLVYNAKTLADGVPSRFSGSGSGTQYSLKIDSLQPEDFGSYYCQHFWTTPFTFGSGTKLEIK	Kd	0.199
13H1 (antibody, V domains shown) VH: QVQLQQSGTELVKPGASVKLSCKASGHTFTSYWMHWVKQRPGQGLEWIGNINPSNGGTNYNEKFKSKATLTVDKSSSTAYMQLSSLTSEDSAVYYCARRGYYGSSSYWSFDVWGTGTTVTVSS VL: DIVMTQTPKSMSMSVGERVTLSCKASENVGTYVSWYQQKPEQSPKVLIYGASNRFTGVPDRFTGSGSATDFTLTISSVQTEDLADYHCGQSYSYPLTFGAGTKLELK	Kd	0.149

Task: Fill blank: measured Kd of the binder 15B8 (antibody, V domains shown) VH: QVQLEQSGTELVKPGASVKLSCKASGYTFTSYWMHWVKQRPGQGLEWIGNINPSNGGTNYNEKFKSKATLTVDKSSSTAYMQLSSLTSEDSAIYYCARRNNYYASSPFAYWGQGTLVSVSA VL: DIVMTQTPASLSASVGETVTITCRASGNIHNYLAWYQQKQGKSPQLLVYNAKTLADGVPSRFSGSGSGTQYSLKINSLQPEDFGSYYCQHFWSTPFTFGSGTKLEIK is ____.
Result: 0.978
